test: Permeability of the compound in pH 5.5 buffer after 4 hrs by PAMPA; type: ADME; settings: PAMPA, pH 5.5; read-out: permeability
Exercise: state measured Papp at 4 h for each of the molecules provided.
Answer in ×10⁻⁶ cm/s, number only, no unit symbol.

Which value of Papp at 4 h has been reported for C/C(CN(C[C@H]1Cc2ccccc2CN1)[C@H]1CCCc2cccnc21)=C(\F)CN in the records?
28

Look up Papp at 4 h: C/C(=C/CN(C[C@H]1Cc2ccccc2CN1)[C@H]1CCCc2cccnc21)CN
0.4

For N[C@H]1CC[C@H](N(C[C@H]2Cc3ccccc3CN2)[C@H]2CCCc3cccnc32)CC1 , what is its reported Papp at 4 h?
0.6

Given the entry C/C(=C/CN)CN(C[C@H]1Cc2ccccc2CN1)[C@H]1CCCc2cccnc21 , report its measured Papp at 4 h.
8.3

Using the record for NCC1=C(CN(C[C@H]2Cc3ccccc3CN2)[C@H]2CCCc3cccnc32)CCCC1 , report its Papp at 4 h.
17

What value of measured Papp at 4 h is listed for NC/C=C/CN(C[C@H]1Cc2ccccc2CN1)[C@H]1CCCc2cccnc21 ?
26

Can you share its Papp at 4 h? I mean this molecule: N[C@H]1CC[C@@H](N(C[C@H]2Cc3ccccc3CN2)[C@H]2CCCc3cccnc32)CC1
1

// returns reported Papp at 4 h for input NC(=O)NC/C=C\CN(C[C@H]1Cc2ccccc2CN1)[C@H]1CCCc2cccnc21
1.3

Would you kindly share the measured Papp at 4 h for C/C(CN)=C(\F)CN(C[C@H]1Cc2ccccc2CN1)[C@H]1CCCc2cccnc21 ?
5

Reference source: ChEMBL document CHEMBL4138298
